# key: entry, value: % cleavage uPA t = 15 min
# Assay target: uPA (Homo sapiens)
# Method: FRET peptide cleavage efficiency with uPA
# Format: biochemical
# Condition summary: t = 15 min; 200 uM linker, 1 ug/ml protease, 37° C., buffer A pH 8.5
Square brackets hold non-standard residues; d marks the D form. Ends that are not written are not given here. Tyr(3-NO2) = N[C@@H](Cc1ccc(O)c([N+](=O)[O-])c1)C(=O)O; 2Abz = Nc1ccccc1C(=O)O

Substance	Assay target	% cleavage uPA t = 15 min [%]
SGRVLRKAGPAGLVG ([2Abz]SGRVLRKAGPAGLVG[Tyr(3-NO2)]-NH2) [LNK013]	uPA (Homo sapiens)	0
HSSKLQYFGKL ([2Abz]HSSKLQYFGKL[Tyr(3-NO2)]-NH2) [LNK061]	uPA (Homo sapiens)	0
SGRVLPANLVG ([2Abz]SGRVLPANLVG[Tyr(3-NO2)]-NH2) [LNK015]	uPA (Homo sapiens)	0
RYGKSAPLGLAG ([2Abz]RYGKSAPLGLAG[Tyr(3-NO2)]-NH2) [LNK027]	uPA (Homo sapiens)	3
KLYSSKQ ([2Abz]KLYSSKQ[Tyr(3-NO2)]-NH2) [LNK071]	uPA (Homo sapiens)	0
SGRPLGYFGKL ([2Abz]SGRPLGYFGKL[Tyr(3-NO2)]-NH2) [LNK056]	uPA (Homo sapiens)	0
SGRVLTLRKAGPANLVG ([2Abz]SGRVLTLRKAGPANLVG[Tyr(3-NO2)]-NH2) [LNK012]	uPA (Homo sapiens)	0
SGRVANLVG (not fully specified (N-terminus, C-terminus)) [LNK017]	uPA (Homo sapiens)	1
GSSVYSGR ([2Abz]GSSVYSGR[Tyr(3-NO2)]-NH2) [LNK080]	uPA (Homo sapiens)	4

###

# key: entry, value: % cleavage MMP-9 t = 15 min
# Assay target: MMP-9 (Homo sapiens, UniProt P14780)
# Construct: purchased SIGMA PF024
# Sequence (P14780 94-707): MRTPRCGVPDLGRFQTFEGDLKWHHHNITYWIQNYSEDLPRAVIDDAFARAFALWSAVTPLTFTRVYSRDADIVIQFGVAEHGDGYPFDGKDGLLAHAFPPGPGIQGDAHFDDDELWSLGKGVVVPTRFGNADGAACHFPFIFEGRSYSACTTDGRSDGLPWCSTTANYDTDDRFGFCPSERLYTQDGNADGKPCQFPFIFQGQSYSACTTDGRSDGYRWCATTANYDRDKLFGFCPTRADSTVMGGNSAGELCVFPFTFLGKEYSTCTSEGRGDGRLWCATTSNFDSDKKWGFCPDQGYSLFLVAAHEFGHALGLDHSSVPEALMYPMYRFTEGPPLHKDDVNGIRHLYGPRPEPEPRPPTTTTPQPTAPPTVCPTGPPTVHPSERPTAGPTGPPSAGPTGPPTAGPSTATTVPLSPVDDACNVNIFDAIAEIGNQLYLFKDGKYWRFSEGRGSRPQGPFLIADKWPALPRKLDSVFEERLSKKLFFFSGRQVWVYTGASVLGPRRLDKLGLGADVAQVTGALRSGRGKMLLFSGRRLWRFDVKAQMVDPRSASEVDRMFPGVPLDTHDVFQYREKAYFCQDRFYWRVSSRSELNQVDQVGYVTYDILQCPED
# Method: FRET peptide cleavage efficiency with MMP-9 (standard pH 7.5; also pH 6.5)
# Assay type: biochemical
# Condition summary: t = 15 min (Table 9)
Square brackets hold non-standard residues; d marks the D form. Ends that are not written are not given here. Tyr(3-NO2) = N[C@@H](Cc1ccc(O)c([N+](=O)[O-])c1)C(=O)O; 2Abz = Nc1ccccc1C(=O)O
Measurement kind: % cleavage MMP-9 t = 15 min

Entry sequence	Reported
HSSKLQYFGKL ([2Abz]HSSKLQYFGKL[Tyr(3-NO2)]-NH2) [LNK061]	0%
SGRVYMLQG ([2Abz]SGRVYMLQG[Tyr(3-NO2)]-NH2) [LNK044]	0%
RGRRPLGYFGKL ([2Abz]RGRRPLGYFGKL[Tyr(3-NO2)]-NH2) [LNK057]	20%
RGRRPLGLAG ([2Abz]RGRRPLGLAG[Tyr(3-NO2)]-NH2) [LNK049]	56%
RGRRVANPLGYFGKL ([2Abz]RGRRVANPLGYFGKL[Tyr(3-NO2)]-NH2) [LNK058]	31%
SSRGRRGPYMLQG ([2Abz]SSRGRRGPYMLQG[Tyr(3-NO2)]-NH2) [LNK021]	60%
RQRRSPLGLAG ([2Abz]RQRRSPLGLAG[Tyr(3-NO2)]-NH2) [LNK010]	76%
RGRRPLGLAGGSG ([2Abz]RGRRPLGLAGGSG[Tyr(3-NO2)]-NH2) [LNK051]	62%
SGRVAPQPLVD (not fully specified (N-terminus, C-terminus)) [LNK046]	23%
